- SYSTEM: PKCα (Homo sapiens)
- Construct: purchased Signal Chem (Richmond, BC, Canada)
- ASSAY_SUMMARY: In-vitro kinase profiling, radioisotope screening assay (Signal Chem)
- Type: biochemical
- ASSAY_SETUP: 5 μM compound, 50 μM ATP, vs vehicle control; negative = inhibition
QUANTITY_KIND: % activity change (%)
Please give a number only; it is taken to be in %.

Look up % activity change of CC(=O)c1c(O)c(C)c(O)c(Cc2c(O)c3c(c(C(=O)/C=C/c4ccccc4)c2O)OC(C)(C)C=C3)c1O and report it.
−7

Look up % activity change of Oc1cc(O)c(Cc2c(O)cc(O)cc2O)c(O)c1 and report it.
−1

Look up % activity change of CC1(C)C=Cc2c(O)cc(O)c(C(=O)/C=C/c3ccccc3)c2O1 and report it.
13

Look up % activity change of CC(=O)c1c(O)c(C)c(O)c(Cc2c(O)c3c(c4c2OC(c2ccccc2)CC4=O)OC(C)(C)C=C3)c1O (stereo not shown) and report it.
9

meta.source: patent US8586768B2
